Source: PubChem BioAssay (EPA / NIEHS)

TEST SUMMARY: CEETOX_H295R_OHPROG: CeeTox H295R High-throughput Steroidogenesis Assay for OH-Progesterone (OHPROG) (AID 2283435)
MEASUREMENT SETUP: actives raise or lower the signal
The source made the active and inactive calls. Rule for the calls: active = hit-call score of the fitted dose curve at least 0.9, where 1 is the maximum; inactive = score below 0.9.
Can you answer with just one of these options? active, inactive

>  <CHEMICAL STRUCTURE>
OCCCO

>  <CLASS ASSIGNMENT>
inactive

$$$$
>  <CHEMICAL STRUCTURE>
c1ccc(OCCOc2ccccc2)cc1

>  <CLASS ASSIGNMENT>
active

$$$$
>  <CHEMICAL STRUCTURE>
CC(C)(C)c1cccc(O)c1

>  <CLASS ASSIGNMENT>
inactive

$$$$
>  <CHEMICAL STRUCTURE>
OCC=Cc1ccccc1

>  <CLASS ASSIGNMENT>
inactive

$$$$
>  <CHEMICAL STRUCTURE>
CC(=N[Si](C)(C)C)O[Si](C)(C)C

>  <CLASS ASSIGNMENT>
inactive

$$$$

Q: What did the test return for CCCCCCCCCCCCN1CCOCC1 ?
A: active

Q: What did the test return for CCCCCC(=O)O[C@]1(C(C)=O)CC[C@H]2[C@@H]3CCC4=CC(=O)CC[C@]4(C)[C@H]3CC[C@@]21C ?
A: inactive

----------
SYSTEM TESTED: human Retinoid X Receptor beta (RXRb), RXRB (gene 6257)
TEST SUMMARY: ATG_RXRb_TRANS: Attagene TRANS-FACTORIAL HepG2 Assay for human Retinoid X Receptor beta (RXRb) (AID 2283013)
Records with an inconclusive call do not appear. The source made the active and inactive calls. How the source made its calls: active means hit-call score of the fitted dose curve at least 0.9, where 1 is the maximum; inconclusive means response in the unintended direction; inactive means score below 0.9.
Can you answer with just one of these options? t for active, f for inactive

Below are worked cases with known answers.
>  <MOLECULE>
Brc1cc(Br)cc(Br)c1

>  <CLASS ASSIGNMENT>
t

$$$$
>  <MOLECULE>
CCCCCCCCCO

>  <CLASS ASSIGNMENT>
f

$$$$
>  <MOLECULE>
Cc1cc(O)c(C)c(C)c1O

>  <CLASS ASSIGNMENT>
f

$$$$
>  <MOLECULE>
C=C/C(C)=C/C/C=C(\C)CCC=C(C)C

>  <CLASS ASSIGNMENT>
f

$$$$
>  <MOLECULE>
CCC(CC)CO

>  <CLASS ASSIGNMENT>
f

$$$$
>  <MOLECULE>
CCCCCCCCOC(C)=O

>  <CLASS ASSIGNMENT>
f

$$$$
>  <MOLECULE>
CCCCC(CC)COCCO (centres undefined)

>  <CLASS ASSIGNMENT>
t

$$$$
>  <MOLECULE>
OC[C@H]1O[C@@H](O[C@H]2[C@H](O)[C@@H](O)[C@H](O)O[C@@H]2CO)[C@H](O)[C@@H](O)[C@H]1O

>  <CLASS ASSIGNMENT>
f

$$$$

Q: What did the test return for CCCCCC1CCC(=O)O1 (centres undefined) ?
A: f

Q: What did the test return for C#C[C@]1(O)CC[C@H]2[C@@H]3CCc4cc(O)ccc4[C@H]3CC[C@@]21C ?
A: f

Q: What did the test return for CC(=O)OCC=C(C)CCC=C(C)CCC=C(C)C ?
A: t

Q: What did the test return for CC(CO)(CO)[N+](=O)[O-] ?
A: f

Q: What did the test return for CC(C)Cc1ccccc1 ?
A: f

Q: What did the test return for CC(C)COC(=O)c1ccccc1O ?
A: f
